Quick record: MIC, Trichophyton rubrum KD-101.
Reply with just the number (in µg/mL).

The reported MIC value, Trichophyton rubrum KD-101, for CCCCOc1ccccc1C(=NN(C)C)n1ccnc1 reads 0.1

Param item: CCN(CC)N=C(c1ccccc1OCc1ccc(Cl)cc1)n1ccnc1 ; param system: Trichophyton rubrum KD-101; output MIC: 0.1

Value (MIC, Trichophyton rubrum KD-101) for record CN(N=C(c1ccccc1Cl)n1ccnc1)c1ccc(Cl)cc1 = 0.39

// MIC (Trichophyton rubrum KD-101) for CCCCCOc1ccc2ccccc2c1C(=NN(C)C)n1ccnc1 = 0.1
